For each of the sequences below, state its folding stability dG unfold.
assay_notes: folding stability dG unfold from trypsin proteolysis; higher = more stable
One number for each entry, in kcal/mol.

Some sequences with known folding stability dG unfold results, for comparison:
SAGGSAGGSAGGMVKIKLKNGKWYEAKVTEIDEDGNVVVELPNGKKFTVPAKDLEIEVLPSAGGSAGGSAGG [r7_823_TrROS_Hall] : 3.77
SMTIRVEGVPPGVTAEELAARLRAELEAAGYEVTSIKVTRRADGSLVVEIEVKPAPPPEPVEVVEEREEESA [r9_953_TrROS_Hall] : 3.4

Please examine the following record next.
# get_value(readout='folding stability dG unfold', item= SAGGSAGGSAGGMRLVRITTEDGRTITAPVGETITITRPDGSKVKITRVEVFELPPEDLSAGGSAGGSAGGS [r10_20_TrROS_Hall] )
0.744
